System: OVCAR-4 ovarian
Test: NCI tumour cell line growth inhibition, 48 h
What TGI was measured for each of the following?

Entry under review: CC(C(N)=O)N(C)C(=O)c1cc2ccccc2[n+](Cc2ccccc2)c1 (configuration not stated) . Reported TGI?
> 100 µM

Also check CCN(C1=CC(=O)NC2CCCCN12)c1ccccc1 (configuration not stated)
> 100 µM

Also need O=C1/C(=C/c2ccc3c(c2)CCC3)Cc2cc3c(cc21)CCC3 , thanks.
> 100 µM

Would you mind doing CN(CCNC(=O)c1[nH]nc2c1Cc1ccccc1-2)CCNC(=O)c1[nH]nc2c1Cc1ccccc1-2 as well?
32.4 µM

Moving on to C=C(C)[C@@H]1CC[C@]2(CNCCO)CC[C@]3(C)[C@H](CC[C@@H]4[C@@]5(C)CCC(N)[C@@](C)(CO)[C@@H]5CC[C@]43C)[C@@H]12 (some centres not stated)
3.99 µM

What would you report for COc1ccc2c(c1)O[C@@H]1c3ccc(OC)cc3OC[C@H]21 ?
> 100 µM

And Cc1ccccc1N=Nc1cc(C)c(N=Nc2c(O)ccc3ccccc23)cc1C ?
> 100 µM

Repeat for the following compound: O=C1c2cccc3cc4ccccc4c(c23)C(=O)N1CCNCCNCCNCCN1C(=O)c2cccc3cc4ccccc4c(c23)C1=O
0.314 µM

What about CCOC(=O)c1ccc2c(c1)c1c(C)c3ccncc3c(C)c1n2C ?
2.55 µM

For COC(=O)[C@@]12OC[C@]34[C@H]([C@@H](O)[C@@H]1O)[C@@]1(C)CC(=O)C(OC(C)=O)=C(C)[C@@H]1C[C@H]3OC(=O)[C@H](OC(=O)C=C(C)C)[C@@H]24 then?
4.05 µM

Also check CN(C)CCNC(=O)c1ccc(Cl)c2c(Nc3ccc(S(=O)(=O)N=C(N)N)cc3)c3ccccc3nc12
5.24 µM

Same again, this time with COc1nc(NC2OC(COC(C)=O)C(OC(C)=O)C(OC(C)=O)C2OC(C)=O)c(N=CC=Nc2c(NC3OC(COC(C)=O)C(OC(C)=O)C(OC(C)=O)C3OC(C)=O)nc(OC)n(C)c2=O)c(=O)n1C (configuration not stated)
> 100 µM

What do we get for COc1ccc(C(OCC2OC(n3cnc4c(=O)n(Cc5ccccc5[N+](=O)[O-])nnc43)C(O)C2O)(c2ccccc2)c2ccc(OC)cc2)cc1 (configuration not stated) ?
> 100 µM

Same question, Cc1cn(CCOCCOC(=O)NC(CCCN=C(N)N)C(=O)O)c(=O)[nH]c1=O (configuration not stated) this time
> 100 µM

Please give the result for Cc1ccc(C[N+](C)(C)N)cc1C too.
> 10 µM

What do we get for O=C(Cc1csc2nc(-c3ccc(Br)cc3)cn12)N/N=C/c1cc(Br)ccc1O ?
> 100 µM

// repeat for O=c1[nH]c(=O)n(C2OC(CO)C(N(O)Cc3ccc(F)cc3)C2O)cc1Br (configuration not stated) and report
> 100 µM
